Please provide measured Measured concentration, autosampler for 12h for the entries that follow.
assayOverview: Stability of analytes in rat plasma QC samples under processing and storage conditions
Assay type: in vitro ADME
experimentalSetup: treated rat plasma sample, spiked 25 ng/mL, n = 6
For clarity, give the value followed by its unit.

## Task Dear colleague, please send me the reported Measured concentration, autosampler for 12h for C[C@@H]1O[C@@H](Oc2c(-c3ccc(O)c(O)c3)oc3cc(O)cc(O)c3c2=O)[C@H](O)[C@H](O)[C@H]1O [Quercitrin] when you can.
## Result 26.4 ± 0.9 ng/mL

## Task Dear colleague, please send me the reported Measured concentration, autosampler for 12h for O=C(/C=C/c1ccc(O)c(O)c1)O[C@@H]1C[C@](O)(C(=O)O)C[C@@H](O)[C@H]1O [Chlorogenic acid] when you can.
## Result 26.6 ± 1.6 ng/mL

## Task Dear colleague, please send me the reported Measured concentration, autosampler for 12h for O=c1c(O)c(-c2ccc(O)c(O)c2)oc2cc(O)cc(O)c12 [Quercetin] when you can.
## Result 26.6 ± 0.7 ng/mL

## Task Dear colleague, please send me the reported Measured concentration, autosampler for 12h for O=C(O)/C=C/c1ccc(O)c(O)c1 [Caffeic acid] when you can.
## Result 28.1 ± 0.8 ng/mL

* * *

Please provide measured Measured concentration, three freeze-thaw for the entries that follow.
assayOverview: Stability of analytes in rat plasma QC samples under processing and storage conditions
Format: in vitro ADME
experimentalSetup: rat plasma, spiked 25 ng/mL, n = 6
Use ng/mL as the unit, but write only the number.

## Task Dear colleague, please send me the reported Measured concentration, three freeze-thaw for `O=C(/C=C/c1ccc(O)c(O)c1)O[C@H]1[C@H](O)C[C@](O)(C(=O)O)C[C@H]1O` when you can.
## Result 26.2

## Task Dear colleague, please send me the reported Measured concentration, three freeze-thaw for `O=C(/C=C/c1ccc(O)c(O)c1)O[C@@H]1C[C@](O)(C(=O)O)C[C@@H](O)[C@H]1O` when you can.
## Result 28.1

## Task Dear colleague, please send me the reported Measured concentration, three freeze-thaw for `O=c1cc(-c2ccc(O)c(O)c2)oc2cc(O)cc(O)c12` when you can.
## Result 26.8

## Task Dear colleague, please send me the reported Measured concentration, three freeze-thaw for `O=c1c(O)c(-c2ccc(O)cc2)oc2cc(O)cc(O)c12` when you can.
## Result 26.2

## Task Dear colleague, please send me the reported Measured concentration, three freeze-thaw for O=c1c(O[C@@H]2O[C@H](CO)[C@H](O)[C@H](O)[C@H]2O)c(-c2ccc(O)c(O)c2)oc2cc(O)cc(O)c12 [Hyperoside] when you can.
## Result 26.2

## Task Dear colleague, please send me the reported Measured concentration, three freeze-thaw for `O=C(O)/C=C/c1ccc(O)c(O)c1` when you can.
## Result 27.0

## Task Dear colleague, please send me the reported Measured concentration, three freeze-thaw for `O=c1c(O)c(-c2ccc(O)c(O)c2)oc2cc(O)cc(O)c12` when you can.
## Result 27.3

## Task Dear colleague, please send me the reported Measured concentration, three freeze-thaw for COc1cc(-c2oc3cc(O)cc(O)c3c(=O)c2O[C@@H]2O[C@H](CO)[C@@H](O)[C@H](O)[C@H]2O)ccc1O [Isorhamnetin-3-O-glucoside] when you can.
## Result 27.1

## Task Dear colleague, please send me the reported Measured concentration, three freeze-thaw for `C[C@@H]1O[C@@H](Oc2c(-c3ccc(O)c(O)c3)oc3cc(O)cc(O)c3c2=O)[C@H](O)[C@H](O)[C@H]1O` when you can.
## Result 26.9

## Task Dear colleague, please send me the reported Measured concentration, three freeze-thaw for `O=c1cc(-c2ccc(O)cc2)oc2cc(O)cc(O)c12` when you can.
## Result 25.7

## Task Dear colleague, please send me the reported Measured concentration, three freeze-thaw for `O=c1c(O[C@@H]2O[C@H](CO)[C@@H](O)[C@H](O)[C@H]2O)c(-c2ccc(O)cc2)oc2cc(O)cc(O)c12` when you can.
## Result 27.2

* * *

assayOverview: Pharmacokinetic study in rats after oral administration of Semen Cuscutae extract (HPLC-MS/MS of plasma)
Format: in vivo, Sprague–Dawley rats
experimentalSetup: male, Sprague-Dawley; rat plasma, oral Semen Cuscutae extract 13 g/kg, n = 6
measurementLabel: Cmax
For clarity, give the value followed by its unit.

## Task Dear colleague, please send me the reported Cmax for COc1cc(-c2oc3cc(O)cc(O)c3c(=O)c2O[C@@H]2O[C@H](CO)[C@@H](O)[C@H](O)[C@H]2O)ccc1O [Isorhamnetin-3-O-glucoside] when you can.
## Result 19.5 ng/mL

## Task Dear colleague, please send me the reported Cmax for O=c1c(O[C@@H]2O[C@H](CO)[C@H](O)[C@H](O)[C@H]2O)c(-c2ccc(O)c(O)c2)oc2cc(O)cc(O)c12 [Hyperoside] when you can.
## Result 29.8 ng/mL

## Task Dear colleague, please send me the reported Cmax for O=C(O)/C=C/c1ccc(O)c(O)c1 [Caffeic acid] when you can.
## Result 33.7 ng/mL

## Task Dear colleague, please send me the reported Cmax for O=c1c(O[C@@H]2O[C@H](CO)[C@@H](O)[C@H](O)[C@H]2O)c(-c2ccc(O)cc2)oc2cc(O)cc(O)c12 [Astragalin] when you can.
## Result 58.2 ng/mL

## Task Dear colleague, please send me the reported Cmax for C[C@@H]1O[C@@H](OC[C@H]2O[C@@H](Oc3c(-c4ccc(O)c(O)c4)oc4cc(O)cc(O)c4c3=O)[C@H](O)[C@@H](O)[C@@H]2O)[C@H](O)[C@H](O)[C@H]1O [Rutin] when you can.
## Result 158 ng/mL

## Task Dear colleague, please send me the reported Cmax for O=C(/C=C/c1ccc(O)c(O)c1)O[C@@H]1C[C@](O)(C(=O)O)C[C@@H](O)[C@H]1O [Chlorogenic acid] when you can.
## Result 35.5 ng/mL

* * *

assayOverview: Stability of analytes in rat plasma QC samples under processing and storage conditions
Assay type: in vitro ADME
experimentalSetup: rat plasma, spiked 2 ng/mL, n = 6
Please provide measured Measured concentration, room temperature for 4h for the entries that follow.
Use ng/mL as the unit, but write only the number.

## Task Dear colleague, please send me the reported Measured concentration, room temperature for 4h for `O=C(O)/C=C/c1ccc(O)c(O)c1` when you can.
## Result 2.1

## Task Dear colleague, please send me the reported Measured concentration, room temperature for 4h for `O=c1cc(-c2ccc(O)cc2)oc2cc(O)cc(O)c12` when you can.
## Result 2.2

## Task Dear colleague, please send me the reported Measured concentration, room temperature for 4h for `O=c1c(O)c(-c2ccc(O)cc2)oc2cc(O)cc(O)c12` when you can.
## Result 2.2
